Parameter: EC50. Scope: all listed entries.
Target entity: T1, RANKL expressed on the surface of 293 cells (UniProt O14788 1-317, limits assumed)
T1 construct: whole, on cells; also called RANKL-transfected 293 cells; cells expressing RANKL
T1 sequence (looked up): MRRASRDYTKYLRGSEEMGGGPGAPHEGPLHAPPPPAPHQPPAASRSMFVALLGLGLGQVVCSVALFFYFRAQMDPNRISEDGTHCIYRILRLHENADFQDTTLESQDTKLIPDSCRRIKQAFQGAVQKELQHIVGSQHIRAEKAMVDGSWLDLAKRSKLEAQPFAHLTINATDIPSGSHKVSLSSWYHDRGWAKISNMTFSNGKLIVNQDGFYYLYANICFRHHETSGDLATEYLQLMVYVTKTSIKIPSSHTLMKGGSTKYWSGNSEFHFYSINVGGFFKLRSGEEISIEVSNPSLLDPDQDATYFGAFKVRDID
Test description: flow cytometry (MFI) on RANKL-transfected 293 cells
Give just the number in µg/mL; leave the unit off.

{"columns": ["Binder", "Measure unit", "EC50"],
 "data": [
  ["clone 408 rabbit anti-RANKL antibody (antibody, V domains shown) VH: QSVEESGGRLVTPGTPLTLTCTVSGFSLSTDVVSWVRQAPGKGLEWIGYTWNGGATFYASWAKGRFTFSKTSTTVDLKITSPTTEDTATYFCARGYNGMDPWGPGTLVTVSS VL: DMTQTPASVEAAVGGAVTIKCQASQNIGSNLAWYHQKPGQPPKLLISKASTLASGVPSRFKGSGSGTEFTLAISDLECADAATYYCQQGYTTKNVVNPFGGGTEVVVK", "µg/mL", 0.303],
  ["clone EBI-51-22 rabbit anti-RANKL antibody (antibody, V domains shown) VH: QSVEESGGRLVTPGTLLTLTCTVSGFSLSTDVLSWVRQAPGKGLEWIGYTWSGGSTYYASWAKGRFTISKTSSTTVDLKITSPTTEDTATYFCARGFNPFDPWGPGTLVTVSS VL: DMTQTPASVSDPVGGTVTIKCQASQNIGSNLAWYQQKPGQRPKLLIYRASTLASGVSSRFKGSGSGTQFTLTISDLECADAATYYCQQGYSAGNVDNNAFGGGTEVVVK", "µg/mL", 0.4],
  ["humanized clone EBI-51-22 anti-RANKL antibody (antibody, V domains shown, also called humanized EBI-51-22; humanized EBI51-22) VH: EVQLVESGGGLVQPGGSLRLSCAVSGFSLSTDVLSWVRQAPGKGLEWIGYTWSGGSTYYASWAKGRFTISKDSSKNTVYLQMNSPRAEDTAVYFCARGFNPFDPWGPGTLVTVSS VL: DIQMTQSPSSLSASVGDRVTIKCQASQNIGSNLAWYQQKPGKRPKLLIYRASTLASGVPSRFSGSGSGTDFTLTISSLQPEDFATYYCQQGYSAGNVDNNAFGGGTKVEIK", "µg/mL", 0.361]
]}

[Q] Entry under review: humanized clone 408 anti-RANKL antibody (antibody, V domains shown) VH: EVQLVESGGGLVQPGGSLRLSCAVSGFSLSTDVVSWVRQAPGKGLEWIGYTWNGGATFYASWAKGRFTFSKDSSKNTVYLQMNSPRAEDTAVYFCARGYNGMDPWGPGTLVTVSS VL: DIQMTQSPSSLSASVGDRVTIKCQASQNIGSNLAWYQQKPGKPPKLLISKASTLASGVPSRFSGSGSGTDFTLTISSLQPEDFATYYCQQGYTTKNVVNPFGGGTKVEIK . Reported EC50?
[A] 0.731
